Just for reference, ChEMBL document CHEMBL1157533 is where these values come from.

System: Rattus norvegicus
Experimental details: Terminal half life in rat at 0.34 mg/kg, iv by cassette assay
Format: ADME, organism-based
Design: dose 0.34 mg/kg, route intravenous
Setup conditions: in vivo
Readout type: beta t1/2 (h)
A number alone suffices; assume h.

Query: Recorded beta t1/2 of "CC(C)Oc1cc(-c2ccc(CCN[C@@H](C)[C@H](O)c3ccccc3)cc2)ccc1C(=O)O" , please.
Response: 8.2

* * *

Experimental system: Beta-1 adrenergic receptor (Homo sapiens, UniProt P08588)
Sequence (P08588 whole entry): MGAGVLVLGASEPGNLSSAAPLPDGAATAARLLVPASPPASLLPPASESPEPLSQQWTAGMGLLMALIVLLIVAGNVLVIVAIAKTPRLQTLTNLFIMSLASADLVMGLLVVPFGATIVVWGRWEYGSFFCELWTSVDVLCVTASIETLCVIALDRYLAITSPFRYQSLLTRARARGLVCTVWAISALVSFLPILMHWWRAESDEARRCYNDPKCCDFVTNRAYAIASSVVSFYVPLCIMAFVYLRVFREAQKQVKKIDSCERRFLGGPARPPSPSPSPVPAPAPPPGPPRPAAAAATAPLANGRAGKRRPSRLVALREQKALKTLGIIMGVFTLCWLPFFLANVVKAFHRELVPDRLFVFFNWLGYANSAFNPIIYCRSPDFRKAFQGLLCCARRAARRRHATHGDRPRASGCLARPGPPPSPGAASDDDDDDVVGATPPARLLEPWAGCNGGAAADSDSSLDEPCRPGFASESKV
Experimental details: Agonist activity at human recombinant beta-1 adrenergic receptor expressed in CHO cells assessed as cAMP accumulation by enzyme immuno assay
Readout type: EC50 (nM)
Provide only the numeric value, understood in nM.

C[C@H](Cc1ccc(-c2ccc(C(=O)O)c(OC3CCCCC3)c2)cc1)NC[C@H](O)c1cccnc1 ... 24
CC(C)Oc1cc(-c2ccc(CCNC[C@H](O)c3ccc(O)c(NS(C)(=O)=O)c3)cc2)ccc1C(=O)O ... 150
CCCOc1cc(-c2ccc(CCCNC[C@H](O)c3cccc(Cl)c3)cc2)ccc1C(=O)O ... 180

Now examine the next entry.
Query: Which EC50 reading was recorded for the compound "C[C@H](Cc1ccc(-c2ccc(C(=O)O)cc2)cc1)NC[C@H](O)c1ccccc1" ?
Response: 22
